- Tested system: Muscarinic
- Test description: Muscarinic affinity binding (3H-PrBCM, whole brain P2 fraction)
- Set-up: species or system Rats
- Test settings: displacement of specific 3H-PrBCM binding by 50%; rat brain, pH 7.4, 30° C.; read-out: Muscarine affinity (IC50)
Reported IC50 is given for each of the following molecules.
The answer is to be given in nM; state only the numeric part.

## Input State its IC50: OCCN1CCN(CCC=C2c3ccccc3Sc3ccc(C(F)(F)F)cc32)CC1 [flupentixol]
## Output 4000

## Input State its IC50: CN1CCC(=C2c3ccc(F)cc3Sc3ccc(C(F)(F)F)cc32)CC1 [Lu 12-312]
## Output 18

* * *

Reported LD50 at 24 h is given for each of the following molecules.
- Test description: Determination of LD50 (acute toxicity, i.p.)
- Assay type: in vivo, Mice, male
- Test settings: mouse, in vivo, ip; mice, i.p., deaths after 24 hours
- Method: Determination of LD50 (mg/kg i.p.) Mice, male, weighing from 18-25 g, fasted from 4 p.m. the day before test day. Four treated groups and one control group, each of 4 mice, are used. The test substance is suspended in methyl cellulose 0.5% and injected intraperitoneally. […] Furthermore the results are recorded according to the punching instructions as fractions: 0/4, 1/4, 2/4, 3/4 and 4/4 where 0, 1, 2, 3 and 4 indicate the number of deaths after the dose in question.
The answer is to be given in mg/kg; state only the numeric part.

O=C(CCCN1CCC(O)(c2ccc(Cl)cc2)CC1)c1ccc(F)cc1
226
OCCN1CCN(CCCN2c3ccccc3Sc3ccc(C(F)(F)F)cc32)CC1
259
CN1CCC(=C2c3ccc(F)cc3Sc3ccc(Cl)cc32)CC1
187
CN1CCC(=C2c3ccc(F)cc3Sc3ccc(C(F)(F)F)cc32)CC1
188
CN(C)CCCN1c2ccccc2Sc2ccc(Cl)cc21
226
CN1CCC(=C2c3ccccc3Sc3ccc(Cl)cc32)CC1
226
OCCN1CCN(CCC=C2c3ccccc3Sc3ccc(Cl)cc32)CC1
226

Here is another molecule to look at.
## Input State its LD50 at 24 h: CN(C)CC/C=C1/c2ccccc2Sc2ccc(Cl)cc21
## Output 226

* * *

- Test description: Determination of LD50 (acute toxicity, i.p.)
- Type: in vivo, Mice, male
- Test settings: mouse, in vivo, ip; mice, i.p., deaths after 24 hours
Outcome measure: LD50 at 24 h (mg/kg)
The answer is to be given in mg/kg; state only the numeric part.

Sample answers from the record:
CN1CCC(=C2c3ccccc3Sc3ccc(C(F)(F)F)cc32)CC1 [Lu 13-003]
187
OCCN1CCN(CCC=C2c3ccccc3Sc3ccc(C(F)(F)F)cc32)CC1 [flupentixol]
246

Here is another compound to look at.
## Input State its LD50 at 24 h: CSc1ccc2c(c1)C(=C1CCN(C)CC1)c1ccccc1S2 [Lu 14-145]
## Output 188

* * *

Reported pIC50 is given for each of the following compounds.
- Tested system: Muscarinic
- Test description: Muscarinic affinity binding (3H-PrBCM, whole brain P2 fraction)
- Test settings: displacement of specific 3H-PrBCM binding by 50%; rat brain, pH 7.4, 30° C.; read-out: Muscarine affinity (IC50)
Convention used: pIC50 is expressed as -log10 of the molar concentration.

CN1CCC(=C2c3ccccc3Sc3ccc(Cl)cc32)CC1
7.85
CSc1ccc2c(c1)C(=C1CCN(C)CC1)c1ccccc1S2
7.89
CSc1ccc2c(c1)C(=C1CCN(C)CC1)c1ccc(F)cc1S2
7.85

## Input State its pIC50: CN1CCC(=C2c3ccccc3Sc3ccc(C(F)(F)F)cc32)CC1
## Output 8.10
